logP values by entry
- assay.overview: logP determination by HPLC on a reversed-phase column (C 18), EEC Directive 79/831 Annex V.A8
- Type: physicochemical
- assay.conditions: value marked [b]

Example entries and their recorded answers appear below.
{"compound": "Cc1cc(C)nc(C(N)=NOC/C=C/CON=C(N)c2cc(C)cc(C)n2)c1 (single isomer, unassigned) [compound 770]", "logP": "2.55^[b] (isomer B)"}
{"compound": "COCc1cccc(C(C)=NOCC(C)CON=C(C)c2cccc(COC)n2)n1 (centres unmarked)", "logP": "4.92^[b]"}

compound CC(=NOCC(C)CON=C(C)c1ncccc1C)c1cccc(C)n1 (centres unmarked) , logP observed: 3.37^[b]

compound C=C(CON=C(C)c1ccc(OC)c(OC)c1)CON=C(C)c1cccc(C)n1 , logP observed: 3.75^[b]

compound CC(=NOCC(C)CON=C(c1ccccc1)c1ncccc1C)c1cccc(C)n1 (centres unmarked) , logP observed: 4.15^[b]

compound CC(=NOCCCCON=C(C)c1cccc(C)n1)c1ccc2c(c1)CC(C)O2 (centres unmarked) , logP observed: 4.91^[b]

compound CC(=NOCC(C)(C)CON=C(C)c1cccc(C(C)C)n1)c1cccc(C)n1 , logP observed: 6.87^[b]

compound C=C(CON=C(C)c1cccc(C)n1)CON=C(c1cccc(C)n1)C(C)C , logP observed: 4.72^[b] (isomer B)

compound CC(=NOCCCCON=C(C)c1cccc2ccccc12)c1cccc(C)n1 , logP observed: 5.19^[b]

compound CC(=NOCC(C)(C)CON=C(c1ccccc1)c1cccc(C)n1)c1cccc(C)n1 [Compound 371] , logP observed: 4.51^[b]

compound CC(=NOCC(C)CON=C(C)c1cc(C)cc(C)n1)c1cccc(C)n1 (centres unmarked) , logP observed: 2.76^[b]

compound C=C(CON=C(C)c1cccc(Cl)c1)CON=C(C)c1cccc(C)n1 , logP observed: 5.31^[b]

compound CCOC(=O)C(C)(CON=C(C)c1ccc(C)c(C)n1)CON=C(C)c1ccc(C)c(C)n1 (centres unmarked) , logP observed: 3.85^[b]

compound C=C(CON=C(C)c1cc(C)ccn1)CON=C(C)c1cccc(C)n1 , logP observed: 2.76^[b]

compound CC(=NOCCCCCCON=C(C)c1cccc(C)n1)c1ccc2c(c1)OCO2 , logP observed: 5.42^[b]

compound CCCC(CON=C(C)c1ccc(C)c(C)n1)CON=C(C)c1ccc(C)c(C)n1 (centres unmarked) , logP observed: 4.48^[b]

compound CC(=NOC[Si](C)(CON=C(C)c1cccc(C)n1)C(C)C)c1cccc(C)n1 , logP observed: 6.72^[b]

----------
logP values by entry
- assay.overview: logP determination by HPLC on a reversed-phase column (C 18), EEC Directive 79/831 Annex V.A8
- Format: physicochemical
- assay.conditions: value marked [b]
- Procedure: The stated logP values were determined in accordance with EEC Directive 79/831 Annex V.A8 by HPLC (high performance liquid chromatography) on a reversed-phase column (C 18). Temperature: 43° C.

Example entries and their recorded answers appear below.
{"molecule": "CC(=NOCCCCCCON=C(C)c1cccc(C)n1)c1cnccn1", "logP": "4.25^[b]"}
{"molecule": "CC(=NOCCCCCCON=C(C)c1cccc2ccccc12)c1cccc(C)n1", "logP": "6.16^[b]"}
{"molecule": "CC(=NOCC(C)CON=C(C)c1nc(C)c(C)c(C)n1)c1nc(C)c(C)c(C)n1 (centres unmarked)", "logP": "3.41^[b]"}
{"molecule": "C=C(CON=C(C)c1cccc(C)n1)CON=C(C)c1cc(OC)cc(C)n1 (single isomer, unassigned)", "logP": "3.33^[b] (isomer B)"}
{"molecule": "C=CCCC(=NOCC(=C)CON=C(C)c1cccc(C)n1)c1ncccc1C", "logP": "4.56^[b]"}

molecule CC(=NOCCCCON=C(CC(C)C)c1cccc(C)n1)c1cccc(C)n1 (single isomer, unassigned) [compound 331] , logP observed: 5.46^[b] (isomer A)

molecule CC(=NOCCCCCCON=C(C)c1cccc(C)n1)c1ccncc1 , logP observed: 2.62^[b]

molecule CC(=NOCC(C)CON=C(C)c1cccc(C)n1)c1ccnc(C)c1 (centres unmarked) , logP observed: 1.80^[b]

Source of measurements: patent US20100022559A1
